These entries and their values trace back to patent US10829473B2.

Entries and their EC50
# TESTED_SYSTEM: F508delCFTR (Homo sapiens, UniProt P13569, DEL508-508)
# Construct: expressed in transfected cells; host or cells: CFBE41o- human lung derived epithelial cells (CFBE41o-F508delCFTR-HRP), doxycycline-inducible
# Sequence (P13569 with tags, fused parts or gaps DEL508-508): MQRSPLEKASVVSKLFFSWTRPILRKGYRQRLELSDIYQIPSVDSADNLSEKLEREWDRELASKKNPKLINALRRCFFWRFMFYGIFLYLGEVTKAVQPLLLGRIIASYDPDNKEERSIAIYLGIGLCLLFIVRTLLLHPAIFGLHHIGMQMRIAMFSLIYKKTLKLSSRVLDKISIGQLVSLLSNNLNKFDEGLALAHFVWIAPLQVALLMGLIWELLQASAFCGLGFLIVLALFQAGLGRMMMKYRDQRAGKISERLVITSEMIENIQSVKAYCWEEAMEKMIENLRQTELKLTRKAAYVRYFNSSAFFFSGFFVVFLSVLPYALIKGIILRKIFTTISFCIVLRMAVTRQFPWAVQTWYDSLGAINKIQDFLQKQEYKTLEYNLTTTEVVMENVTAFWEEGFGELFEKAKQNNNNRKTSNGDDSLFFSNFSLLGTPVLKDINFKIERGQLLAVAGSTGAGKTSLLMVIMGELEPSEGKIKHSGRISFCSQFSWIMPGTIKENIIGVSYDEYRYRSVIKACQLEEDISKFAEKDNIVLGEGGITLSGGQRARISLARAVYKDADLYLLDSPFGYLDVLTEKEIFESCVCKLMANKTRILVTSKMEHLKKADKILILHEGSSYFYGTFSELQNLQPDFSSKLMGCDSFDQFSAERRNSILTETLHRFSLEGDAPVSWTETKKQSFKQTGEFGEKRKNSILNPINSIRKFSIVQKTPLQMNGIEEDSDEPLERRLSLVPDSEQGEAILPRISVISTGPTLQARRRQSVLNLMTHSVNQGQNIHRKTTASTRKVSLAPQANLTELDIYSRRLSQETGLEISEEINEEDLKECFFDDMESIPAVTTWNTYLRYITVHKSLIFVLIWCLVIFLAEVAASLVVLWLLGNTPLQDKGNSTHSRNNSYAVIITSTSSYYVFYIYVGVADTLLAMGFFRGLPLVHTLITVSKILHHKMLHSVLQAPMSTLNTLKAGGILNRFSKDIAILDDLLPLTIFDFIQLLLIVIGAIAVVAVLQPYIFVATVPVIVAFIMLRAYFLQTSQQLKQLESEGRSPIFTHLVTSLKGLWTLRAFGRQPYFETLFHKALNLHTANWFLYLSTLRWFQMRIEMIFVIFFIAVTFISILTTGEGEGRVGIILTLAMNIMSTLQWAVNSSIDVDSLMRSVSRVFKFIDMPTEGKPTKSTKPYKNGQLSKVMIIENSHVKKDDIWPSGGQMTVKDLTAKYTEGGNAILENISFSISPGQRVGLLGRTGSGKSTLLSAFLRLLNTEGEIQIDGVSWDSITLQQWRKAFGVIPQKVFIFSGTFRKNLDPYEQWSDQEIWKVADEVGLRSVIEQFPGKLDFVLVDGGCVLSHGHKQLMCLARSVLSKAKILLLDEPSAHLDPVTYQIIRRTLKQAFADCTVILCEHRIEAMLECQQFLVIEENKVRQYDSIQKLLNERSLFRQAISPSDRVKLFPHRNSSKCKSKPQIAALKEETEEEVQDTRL
# PROTOCOL_NOTES: Cell Surface Expression-Horse Radish Peroxidase (CSE-HRP) Assay;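 note: co-corrector chromenyl benzoic acid corrector at 2 or 3 µM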
# Type: cell-based
# STUDY_CONDITIONS: with co-corrector; read-out: EC50 (with co-corrector)

Illustrative cases are given below, each with its answer.
COMPOUND	TESTED_SYSTEM	REPORTED_VALUE
O=C(NS(=O)(=O)c1ccccc1)C1(c2ccc(Cl)cc2Cl)CC1 [Example III-3]	F508delCFTR (Homo sapiens, UniProt P13569, DEL508-508)	3 to 10 µM
CCOc1ccc(C2(OC)CCC2)cc1C1(C(=O)NS(=O)(=O)c2cccc3ncccc23)CC1 [Example I-102]	F508delCFTR (Homo sapiens, UniProt P13569, DEL508-508)	< 3 µM
CCc1ccc(OC)c(C2(C(=O)NS(=O)(=O)c3cccc4nc(N)ccc34)CC2)c1 [II-71]	F508delCFTR (Homo sapiens, UniProt P13569, DEL508-508)	< 3 µM
Cc1ccccc1S(=O)(=O)NC(=O)C1(c2cccc(Cl)c2)CCCC1 [Example III-83]	F508delCFTR (Homo sapiens, UniProt P13569, DEL508-508)	> 10 µM
COCC(C)(C)c1ccc(OC)c(C2(C(=O)NS(=O)(=O)c3cccc4ncccc34)CC2)c1 [Example I-110]	F508delCFTR (Homo sapiens, UniProt P13569, DEL508-508)	< 3 µM

Form field: reported EC50 of CN(C)c1cccc2c(S(=O)(=O)NC(=O)C3(c4cccc(Cl)c4)CC3)cccc12 [Example III-58] 3 to 10 µM

For the compound COc1ncc(C)cc1C1(C(=O)NS(=O)(=O)c2cccc3c2CCCN3)CC1 [II-10] , what EC50 is on record? 3 to 10 µM

Given COc1ncc(C2CCC2)cc1C1(C(=O)NS(=O)(=O)c2cccc3ncn(C)c23)CC1 [II-12] , state its recorded EC50. < 3 µM

---

# TESTED_SYSTEM: F508delCFTR (Homo sapiens, UniProt P13569, DEL508-508)
# Construct: expressed in transfected cells; host or cells: CFBE41o- human lung derived epithelial cells (CFBE41o-F508delCFTR-HRP), doxycycline-inducible
# PROTOCOL_NOTES: Cell Surface Expression-Horse Radish Peroxidase (CSE-HRP) Assay;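 note: co-corrector chromenyl benzoic acid corrector at 2 or 3 µM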
# Assay type: cell-based
# STUDY_CONDITIONS: with co-corrector; read-out: EC50 (with co-corrector)
pEC50: −log10 of the molar value.
ASSAY_METRIC: pEC50

COMPOUND	pEC50
COC[C@H](C)Oc1ccc(C)cc1C1(C(=O)NS(=O)(=O)c2cccc3nc(C)ccc23)CC1 [II-104]	> 5.52
CCOc1ccc2nc(S(=O)(=O)NC(=O)C3(c4cccc(Cl)c4)CC3)sc2c1 [Example III-56]	< 5.00
COc1ccc(C2CCC2)cc1C1(C(=O)NS(=O)(=O)c2cccc3c2CCCN3)CCC1 [Example I-10]	> 5.52
COc1ccc(C(C)OC)cc1C1(C(=O)NS(=O)(=O)c2cccc3ncccc23)CC1 (centres unmarked) [II-87]	> 5.52
COc1ccc(C)c(C2(C(=O)NS(=O)(=O)c3cccc4ncccc34)CCN(C)CC2)c1 [Example III-94]	< 5.00

Would you mind telling me what pEC50 value was observed for COc1ncc(C(F)(F)F)cc1C1(C(=O)NS(=O)(=O)c2cccc3ncn(C)c23)CC1 [Example III-96] ? 5.00 to 5.52

Any idea what pEC50 was measured for O=C(NS(=O)(=O)c1ccccc1)C1(c2ccccc2)CC1 [Example III-6] ? 5.00 to 5.52
